# IC50 per record follows
# System: Cyclin-dependent kinase 4/cyclin D (Homo sapiens, UniProt P11802+P24385+P30281+P30279)
# Sequence (P11802 whole entry): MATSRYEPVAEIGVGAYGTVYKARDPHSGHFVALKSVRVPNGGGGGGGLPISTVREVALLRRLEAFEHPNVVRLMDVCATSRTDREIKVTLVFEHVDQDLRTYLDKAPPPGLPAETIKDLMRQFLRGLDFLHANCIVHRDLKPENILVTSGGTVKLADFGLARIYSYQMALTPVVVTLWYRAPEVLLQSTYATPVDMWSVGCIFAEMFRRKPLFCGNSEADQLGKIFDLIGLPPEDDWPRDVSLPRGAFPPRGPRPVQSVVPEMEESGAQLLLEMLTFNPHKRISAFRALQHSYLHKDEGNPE
# Sequence (P24385 whole entry): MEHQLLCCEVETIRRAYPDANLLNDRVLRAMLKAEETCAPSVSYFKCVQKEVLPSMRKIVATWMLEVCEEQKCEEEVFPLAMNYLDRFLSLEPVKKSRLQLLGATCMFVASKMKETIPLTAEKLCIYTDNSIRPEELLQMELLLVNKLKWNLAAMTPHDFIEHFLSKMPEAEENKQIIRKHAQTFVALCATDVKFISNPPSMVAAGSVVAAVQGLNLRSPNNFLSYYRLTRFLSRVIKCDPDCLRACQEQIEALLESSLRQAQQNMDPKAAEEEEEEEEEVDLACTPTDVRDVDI
# Sequence (P30281 whole entry): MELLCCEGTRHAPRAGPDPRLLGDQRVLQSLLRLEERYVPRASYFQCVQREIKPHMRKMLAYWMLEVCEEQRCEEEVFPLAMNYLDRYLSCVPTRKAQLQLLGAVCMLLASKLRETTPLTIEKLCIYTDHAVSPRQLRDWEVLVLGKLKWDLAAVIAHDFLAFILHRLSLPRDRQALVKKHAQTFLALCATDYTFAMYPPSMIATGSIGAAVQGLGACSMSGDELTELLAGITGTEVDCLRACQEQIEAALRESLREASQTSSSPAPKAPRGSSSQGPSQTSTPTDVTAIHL
# Sequence (P30279 whole entry): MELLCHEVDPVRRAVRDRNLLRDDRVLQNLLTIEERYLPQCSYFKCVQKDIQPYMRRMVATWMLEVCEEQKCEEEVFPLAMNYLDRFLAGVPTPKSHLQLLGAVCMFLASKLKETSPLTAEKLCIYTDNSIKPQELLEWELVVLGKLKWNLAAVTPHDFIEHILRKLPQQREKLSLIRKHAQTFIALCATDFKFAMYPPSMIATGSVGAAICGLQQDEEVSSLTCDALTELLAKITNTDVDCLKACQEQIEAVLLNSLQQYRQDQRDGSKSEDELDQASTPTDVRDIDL
# Procedure details: Inhibition of [32P]ATP binding to Cyclin dependant kinase 4-cyclin D

>  <Smiles record>
CCOC(=O)c1c(C)c2cnc(Nc3ccc(N4CCNCC4)cc3)nc2n(C2CCCC2)c1=O

>  <Display unit>
nM

>  <IC50>
6

$$$$
>  <Smiles record>
CC(=O)c1c(C)c2cnc(Nc3ccc(N4CCNCC4)cc3)nc2n(C2CCCC2)c1=O

>  <Display unit>
nM

>  <IC50>
2

$$$$

---

# pIC50 per record follows
# System: Cyclin-dependent kinase 2/cyclin A (Homo sapiens, UniProt P24941)
# Procedure details: Inhibition of [32P]ATP binding to Cyclin dependent kinase 2-cyclin A
pIC50: −log10 of the molar value.

>  <Smiles record>
CC(=O)N1CCN(c2ccc(Nc3ncc4c(C)cc(=O)n(C5CCCC5)c4n3)cc2)CC1

>  <pIC50>
< 5.30

$$$$
>  <Smiles record>
CN1CCN(c2ccc(Nc3ncc4ccc(=O)n(C5CCCC5)c4n3)cc2)CC1

>  <pIC50>
7.85

$$$$
>  <Smiles record>
Cc1cc(=O)n(C2CCCC2)c2nc(Nc3ccc(N4CCN(C)CC4)cc3)ncc12

>  <pIC50>
< 5.30

$$$$
>  <Smiles record>
Cc1c(F)c(=O)n(C2CCCC2)c2nc(Nc3ccc(N4CCNCC4)cc3)ncc12

>  <pIC50>
< 5.30

$$$$
>  <Smiles record>
Cc1cc(=O)n(C2CCCC2)c2nc(Nc3ccc(N4CCNCC4)c(Cl)c3)ncc12

>  <pIC50>
< 5.30

$$$$
>  <Smiles record>
CCOC(=O)c1c(C)c2cnc(Nc3ccc(N4CCNCC4)cc3)nc2n(C2CCCC2)c1=O

>  <pIC50>
< 5.30

$$$$
>  <Smiles record>
Cc1cc(=O)n(C2CCCC2)c2nc(Nc3ccc(N4CCN(C=O)CC4)cc3)ncc12

>  <pIC50>
< 5.30

$$$$
>  <Smiles record>
Cc1cc(=O)n(C2CCCC2)c2nc(Nc3ccc(N4CCCCC4)cc3)ncc12

>  <pIC50>
< 5.30

$$$$
>  <Smiles record>
Cc1c(Cl)c(=O)n(C2CCCC2)c2nc(Nc3ccc(N4CCNCC4)cc3)ncc12

>  <pIC50>
5.79

$$$$
>  <Smiles record>
CCc1cc(=O)n(C2CCCC2)c2nc(Nc3ccc(N4CCNCC4)cc3)ncc12

>  <pIC50>
< 5.30

$$$$

---

# Test system: MDA-MB-435
# Procedure details: In vitro inhibitory concentration is measured by the incorporation of [14C]thymidine in human breast carcinoma MDA-MB-435 cell line
# Type: functional, cell-based
pIC50: −log10 of the molar value.
Readout label: pIC50

>  <Smiles record>
CC(=O)c1c(C)c2cnc(Nc3ccc(N4CCNCC4)cc3)nc2n(C2CCCC2)c1=O

>  <Experimental value>
7.49

$$$$

---

# System: Ribosomal protein S6 kinase (P70S6K) (Homo sapiens, UniProt P23443+Q9UBS0)
# Sequence (Q9UBS0 whole entry): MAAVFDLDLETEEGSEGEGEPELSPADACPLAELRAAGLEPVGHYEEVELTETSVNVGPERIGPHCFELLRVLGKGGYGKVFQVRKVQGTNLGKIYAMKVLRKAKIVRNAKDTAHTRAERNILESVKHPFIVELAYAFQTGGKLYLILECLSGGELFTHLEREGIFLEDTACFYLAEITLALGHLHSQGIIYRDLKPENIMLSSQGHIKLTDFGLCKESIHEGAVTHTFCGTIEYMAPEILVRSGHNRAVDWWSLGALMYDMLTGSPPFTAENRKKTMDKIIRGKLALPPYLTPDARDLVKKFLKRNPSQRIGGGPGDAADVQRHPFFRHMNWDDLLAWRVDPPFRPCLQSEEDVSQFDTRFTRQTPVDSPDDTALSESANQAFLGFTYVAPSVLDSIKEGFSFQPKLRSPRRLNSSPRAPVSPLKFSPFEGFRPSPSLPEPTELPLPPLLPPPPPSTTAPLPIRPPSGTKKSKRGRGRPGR
# Sequence (P23443 whole entry): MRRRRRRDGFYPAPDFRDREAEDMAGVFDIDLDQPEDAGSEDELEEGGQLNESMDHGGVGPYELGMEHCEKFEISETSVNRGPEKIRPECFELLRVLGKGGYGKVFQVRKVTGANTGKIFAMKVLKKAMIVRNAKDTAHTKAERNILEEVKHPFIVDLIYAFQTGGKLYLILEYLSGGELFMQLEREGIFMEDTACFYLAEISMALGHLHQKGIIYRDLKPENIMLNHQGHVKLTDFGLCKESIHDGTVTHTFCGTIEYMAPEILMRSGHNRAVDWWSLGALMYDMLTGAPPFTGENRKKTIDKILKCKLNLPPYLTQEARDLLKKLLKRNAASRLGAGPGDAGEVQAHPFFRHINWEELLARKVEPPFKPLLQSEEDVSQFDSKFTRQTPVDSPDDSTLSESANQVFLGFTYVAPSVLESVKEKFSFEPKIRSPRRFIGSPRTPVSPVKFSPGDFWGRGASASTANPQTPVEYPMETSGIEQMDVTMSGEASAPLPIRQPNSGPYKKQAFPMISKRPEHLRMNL
# Procedure details: Inhibition of Ribosomal protein S6 kinase (p70S6K1)

>  <Smiles record>
CC(=O)c1c(C)c2cnc(Nc3ccc(N4CCNCC4)cc3)nc2n(C2CCCC2)c1=O

>  <System>
Ribosomal protein S6 kinase (P70S6K) (Homo sapiens, UniProt P23443+Q9UBS0)

>  <IC50>
> 10 µM

$$$$

---

# System: Mitogen-activated protein kinase 14 (Homo sapiens)
# Sequence (Q16539 whole entry): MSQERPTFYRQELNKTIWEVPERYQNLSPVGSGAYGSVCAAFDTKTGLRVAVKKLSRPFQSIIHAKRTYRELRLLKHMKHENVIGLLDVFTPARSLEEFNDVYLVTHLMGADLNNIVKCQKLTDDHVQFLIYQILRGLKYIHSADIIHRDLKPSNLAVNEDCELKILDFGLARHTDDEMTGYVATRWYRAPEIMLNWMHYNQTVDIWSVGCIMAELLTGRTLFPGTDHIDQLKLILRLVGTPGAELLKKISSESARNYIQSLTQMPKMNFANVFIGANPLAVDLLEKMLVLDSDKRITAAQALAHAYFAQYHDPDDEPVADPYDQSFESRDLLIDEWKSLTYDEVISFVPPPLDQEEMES
# Procedure details: Inhibition of Stress activated protein kinase 2a
pIC50: −log10 of the molar value.
Readout label: pIC50

>  <Smiles record>
CC(=O)c1c(C)c2cnc(Nc3ccc(N4CCNCC4)cc3)nc2n(C2CCCC2)c1=O

>  <Experimental value>
< 5.00

$$$$

---

# Procedure details: Inhibition of Protein Kinase A
# Set-up: species or system Homo sapiens

>  <Smiles record>
CC(=O)c1c(C)c2cnc(Nc3ccc(N4CCNCC4)cc3)nc2n(C2CCCC2)c1=O

>  <IC50>
> 10 µM

$$$$

---

# Procedure details: Inhibition of Tyrosine-protein kinase CSK

>  <Smiles record>
CC(=O)c1c(C)c2cnc(Nc3ccc(N4CCNCC4)cc3)nc2n(C2CCCC2)c1=O

>  <IC50>
> 10 µM

$$$$

---

# IC50 per record follows
# System: Cyclin-dependent kinase 2/cyclin A (Homo sapiens, UniProt P24941)
# Procedure details: Inhibition of [32P]ATP binding to Cyclin dependent kinase 2-cyclin A

>  <Smiles record>
Cc1cc(=O)n(C2CCCC2)c2nc(Nc3ccc(N4CCN(CCO)CC4)cc3)ncc12

>  <System>
Cyclin-dependent kinase 2/cyclin A (Homo sapiens, UniProt P24941)

>  <IC50>
> 5 µM

$$$$
>  <Smiles record>
Cc1cc(=O)n(C2CCCC2)c2nc(Nc3ccc(N4CCCNCC4)cc3)ncc12

>  <System>
Cyclin-dependent kinase 2/cyclin A (Homo sapiens, UniProt P24941)

>  <IC50>
> 5 µM

$$$$
>  <Smiles record>
O=c1cc(C(F)(F)F)c2cnc(Nc3ccc(N4CCNCC4)cc3)nc2n1C1CCCC1

>  <System>
Cyclin-dependent kinase 2/cyclin A (Homo sapiens, UniProt P24941)

>  <IC50>
> 5 µM

$$$$
>  <Smiles record>
Cc1cc(=O)n(C(C)C)c2nc(Nc3ccc(N4CCNCC4)cc3)ncc12

>  <System>
Cyclin-dependent kinase 2/cyclin A (Homo sapiens, UniProt P24941)

>  <IC50>
> 5 µM

$$$$
>  <Smiles record>
Cc1cc(=O)n(C2CCCC2)c2nc(Nc3ccc(N4CCNC(C)(C)C4)cc3)ncc12

>  <System>
Cyclin-dependent kinase 2/cyclin A (Homo sapiens, UniProt P24941)

>  <IC50>
> 5 µM

$$$$
>  <Smiles record>
Cc1cc(=O)n(CCC(C)C)c2nc(Nc3ccc(N4CCNCC4)cc3)ncc12

>  <System>
Cyclin-dependent kinase 2/cyclin A (Homo sapiens, UniProt P24941)

>  <IC50>
> 5 µM

$$$$
>  <Smiles record>
Cc1cc(=O)n(C2CCCC2)c2nc(Nc3ccc(N4CCOCC4)cc3)ncc12

>  <System>
Cyclin-dependent kinase 2/cyclin A (Homo sapiens, UniProt P24941)

>  <IC50>
> 5 µM

$$$$
>  <Smiles record>
CCc1c(C)c2cnc(Nc3ccc(N4CCNCC4)cc3)nc2n(C2CCCC2)c1=O

>  <System>
Cyclin-dependent kinase 2/cyclin A (Homo sapiens, UniProt P24941)

>  <IC50>
1.54 µM

$$$$
>  <Smiles record>
O=c1ccc2cnc(Nc3ccc(N4CCCCC4)cc3)nc2n1C1CCCC1

>  <System>
Cyclin-dependent kinase 2/cyclin A (Homo sapiens, UniProt P24941)

>  <IC50>
0.66 µM

$$$$
>  <Smiles record>
O=c1ccc2cnc(Nc3ccc(N4CCOCC4)cc3)nc2n1C1CCCC1

>  <System>
Cyclin-dependent kinase 2/cyclin A (Homo sapiens, UniProt P24941)

>  <IC50>
0.028 µM

$$$$

---

# System: Cyclin-dependent kinase 2/cyclin E (Homo sapiens)
# Procedure details: Inhibition of [32P]ATP binding to Cyclin dependent kinase 2-cyclin E
pIC50: −log10 of the molar value.
# pIC50 per record follows

>  <Smiles record>
Cc1c(C(=O)O)c(=O)n(C2CCCC2)c2nc(Nc3ccc(N4CCNCC4)cc3)ncc12

>  <Readout relation>
<

>  <pIC50>
5.30

$$$$
>  <Smiles record>
Cc1c(C)c2cnc(Nc3ccc(N4CCNCC4)cc3)nc2n(C2CCCC2)c1=O

>  <Readout relation>
<

>  <pIC50>
5.30

$$$$
>  <Smiles record>
Cc1c(I)c(=O)n(C2CCCC2)c2nc(Nc3ccc(N4CCNCC4)cc3)ncc12

>  <Readout relation>
=

>  <pIC50>
6.44

$$$$
>  <Smiles record>
O=c1ccc2cnc(Nc3ccc(N4CCNCC4)cc3)nc2n1C1CCCC1

>  <Readout relation>
=

>  <pIC50>
7.10

$$$$
>  <Smiles record>
Cc1c(Cl)c(=O)n(C2CCCC2)c2nc(Nc3ccc(N4CCNCC4)cc3)ncc12

>  <Readout relation>
=

>  <pIC50>
5.82

$$$$
>  <Smiles record>
Cc1cc(=O)n(C(C)C)c2nc(Nc3ccc(N4CCNCC4)cc3)ncc12

>  <Readout relation>
<

>  <pIC50>
5.30

$$$$
>  <Smiles record>
Cc1c(Br)c(=O)n(C2CCCC2)c2nc(Nc3ccc(N4CCNCC4)cc3)ncc12

>  <Readout relation>
=

>  <pIC50>
6.02

$$$$
>  <Smiles record>
Cc1cc(=O)n(C2CCCC2)c2nc(Nc3ccc(N4CCN(CCO)CC4)cc3)ncc12

>  <Readout relation>
<

>  <pIC50>
5.30

$$$$
>  <Smiles record>
Cc1cc(=O)n(C2CCCC2)c2nc(Nc3ccc(N4C[C@@H](C)N[C@@H](C)C4)cc3)ncc12

>  <Readout relation>
<

>  <pIC50>
5.30

$$$$
